Target: KRAS^G12V (Homo sapiens, UniProt P01116, G12V)
Construct: Monomer (2-188); host or cells: E. coli
Sequence (P01116 2-188 isoform P01116-2 G12V): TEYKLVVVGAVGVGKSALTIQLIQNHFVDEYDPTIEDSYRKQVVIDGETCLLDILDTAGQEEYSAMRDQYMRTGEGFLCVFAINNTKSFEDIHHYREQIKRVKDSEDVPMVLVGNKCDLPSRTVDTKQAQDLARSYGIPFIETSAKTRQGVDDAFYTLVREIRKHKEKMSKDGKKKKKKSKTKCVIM
Assay: FRET-Probe isothermal chemical denaturation (ICD) assay, KRAS^G12V
Format: binding
Details: 50 nM KRAS^G12V, pH 5 denaturation buffer, 90 min
reported-property: pEC50
Just the number, please; pEC50 means minus log10 of the concentration in mol/L.

Short answer on KRAS^G12V (Homo sapiens, UniProt P01116, G12V) for Nc1nc2c(ncn2[C@@H]2O[C@H](COP(=O)(O)OP(=O)(O)OP(=O)(O)O)[C@@H](O)[C@H]2O)c(=O)[nH]1 [GTP, guanosine-5'-triphosphate] , pEC50: 8.46

---

Target: KRAS^G12V (Homo sapiens, UniProt P01116, G12V)
Construct: Monomer (2-188); host or cells: E. coli
Experiment: FRET-Probe isothermal chemical denaturation (ICD) assay, KRAS^G12V
Assay type: binding
Conditions: KRAS^G12V, 20% 1-propanol, 60 min
reported-property: EC50 (nM)
Reply with just the number (in nM).

Short answer on KRAS^G12V (Homo sapiens, UniProt P01116, G12V) for Nc1nc2c(ncn2[C@@H]2O[C@H](COP(=O)(O)OP(=O)(O)OP(=O)(O)O)[C@@H](O)[C@H]2O)c(=O)[nH]1 [GTP, guanosine-5'-triphosphate] , EC50: 3.8

---

Target: KRAS^G12V (Homo sapiens, UniProt P01116, G12V)
Construct: Monomer (2-188); host or cells: E. coli
Experiment: FRET-Probe isothermal chemical denaturation (ICD) assay, KRAS^G12V
Type: binding
Conditions: KRAS^G12V, 20% 1-propanol, 90 min
reported-property: EC50 (nM)
Reply with just the number (in nM).

Item: Nc1nc2c(ncn2[C@@H]2O[C@H](COP(=O)(O)OP(=O)(O)OP(=O)(O)O)[C@@H](O)[C@H]2O)c(=O)[nH]1 [GTP, guanosine-5'-triphosphate] | EC50: 5.2

---

Biological target: KRAS^G12V (Homo sapiens, UniProt P01116, G12V)
Construct: Monomer (2-188); host or cells: E. coli
Assay: FRET-Probe isothermal chemical denaturation (ICD) assay, KRAS^G12V
Type: binding
Details: KRAS^G12V, 20% 1-propanol, 120 min
reported-property: EC50 (nM)
Reply with just the number (in nM).

Short answer on KRAS^G12V (Homo sapiens, UniProt P01116, G12V) for Nc1nc2c(ncn2[C@@H]2O[C@H](COP(=O)(O)OP(=O)(O)OP(=O)(O)O)[C@@H](O)[C@H]2O)c(=O)[nH]1 [GTP, guanosine-5'-triphosphate] , EC50: 5.2

---

Biological target: KRAS^G12V (Homo sapiens, UniProt P01116, G12V)
Construct: Monomer (2-188); host or cells: E. coli
Assay: FRET-Probe isothermal chemical denaturation (ICD) assay, KRAS^G12V
Assay type: binding
Details: KRAS^G12V, 20% 1-propanol, 30 min
Description: All isothermal chemical denaturation (ICD) assays were conducted in triplicates at RT using a single-step protocol with 25 µL final volume. Sample protein and ligand were added in 5 µL in a buffer (10 mM HEPES (pH 7.5), 10 mM NaCl, (v/v) 0.01% Brij 30) without denaturant. […] In all ICD protein assays, time-resolved Förster resonance energy transfer (TR-FRET) signal was monitored kinetically at multiple time points during 150 min incubation. […]
reported-property: EC50

Item: Nc1nc2c(ncn2[C@@H]2O[C@H](COP(=O)(O)OP(=O)(O)OP(=O)(O)O)[C@@H](O)[C@H]2O)c(=O)[nH]1 [GTP, guanosine-5'-triphosphate] | EC50: 3.6 nM
